FYI, the data here is from patent EP0823908B1.

Molecular target: mouse PDGF-β receptor tyrosine kinase (Mus musculus)
Construct: amplify a fragment of DNA that codes for the intracellular tyrosine kinase domain
Sequence (P05622 599-961 limits assumed): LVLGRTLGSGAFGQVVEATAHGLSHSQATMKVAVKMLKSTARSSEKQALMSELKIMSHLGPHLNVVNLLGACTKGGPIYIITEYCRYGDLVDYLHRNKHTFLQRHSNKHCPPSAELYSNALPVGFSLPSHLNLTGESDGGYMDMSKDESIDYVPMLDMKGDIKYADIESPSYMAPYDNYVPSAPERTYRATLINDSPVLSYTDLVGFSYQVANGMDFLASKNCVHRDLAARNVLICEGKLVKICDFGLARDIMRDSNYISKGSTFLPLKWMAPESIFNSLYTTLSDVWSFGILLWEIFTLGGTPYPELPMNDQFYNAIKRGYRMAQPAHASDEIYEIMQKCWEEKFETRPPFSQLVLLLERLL
Experiment: PDGF receptor tyrosine kinase assay (32P incorporation into glutamate-tyrosine co-polymer)
Conditions: read-out: PDGFr-TK IC50
quantity name: IC50 (nM)

Solved entries:
Reported IC50, compound `CC(C)Nc1ncc2cc(-c3c(Cl)cccc3Cl)c(=O)n(C)c2n1` : ____ 2090

And what about the compound `CCn1c(=O)c(-c2ccncc2)cc2cnc(Nc3ccccc3)nc21` ? 1830

And then `CCn1c(=O)c(-c2c(Cl)cccc2Cl)cc2cnc(Nc3ccccc3)nc21` , what is it? 593

And the next one, `Cn1c(=O)c(-c2ccccc2)cc2cnc(N)nc21` ? 11300

Field entry: `COc1cc(Nc2ncc3cc(-c4c(Cl)cccc4Cl)c(=O)n(C)c3n2)cc(OC)c1` 1180

Item: `Nc1ncc2cc(-c3c(Cl)cccc3Cl)c(=O)n(CCCc3ccccc3)c2n1` 5170

Could you do the same for `Cn1c(=O)c(-c2c(Cl)cccc2Cl)cc2cnc(Nc3ccc(Cl)cc3)nc21` , please? 1680

Entry `COc1ccc(Cn2c(=O)c(-c3c(Cl)cccc3Cl)cc3cnc(N)nc32)cc1` please 11200

A. CCOC(=O)c1cccc(Nc2ncc3cc(-c4c(Cl)cccc4Cl)c(=O)n(C)c3n2)c1
B. CCCCn1c(=O)c(-c2c(Cl)cccc2Cl)cc2cnc(N)nc21
Given the listed items, does A or B have the lesser reported IC50? Give the chosen item's label as your response. B

A. CCn1c(=O)c(-c2c(Cl)cccc2Br)cc2cnc(Nc3ccccc3)nc21
B. COc1ccccc1N1CCN(CCCNc2ncc3cc(-c4c(Cl)cccc4Cl)c(=O)n(C)c3n2)CC1
Could you check which of A and B has a smaller value for IC50? Write down the label attached to your selection. A
(A: 1230 nM, B: 5360 nM)

A. Cc1cccc(C)c1-c1cc2cnc(N)nc2n(C)c1=O
B. Cn1c(=O)c(-c2c(Cl)cccc2Cl)cc2cnc(Nc3ccc(CC(=O)O)cc3)nc21
Given the two records A and B , choose the one whose IC50 value is lower. # respond with the chosen item's label B

###

Molecular target: human FGF-1 (flg) receptor tyrosine kinase (Homo sapiens, UniProt P11362)
Construct: amplify a fragment of DNA that codes for the intracellular tyrosine kinase domain; made in house; host or cells: SF9 insect cells (baculovirus)
Sequence (P11362 478-767 limits assumed): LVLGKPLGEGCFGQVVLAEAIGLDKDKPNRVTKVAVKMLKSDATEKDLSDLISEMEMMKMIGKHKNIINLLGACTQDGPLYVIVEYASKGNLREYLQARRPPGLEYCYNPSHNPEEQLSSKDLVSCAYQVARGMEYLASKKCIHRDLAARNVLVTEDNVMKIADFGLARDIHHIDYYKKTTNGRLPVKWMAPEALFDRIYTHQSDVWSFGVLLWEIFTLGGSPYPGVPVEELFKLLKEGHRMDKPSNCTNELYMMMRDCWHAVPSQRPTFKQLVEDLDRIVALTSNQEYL
Assay: FGF receptor tyrosine kinase assay (32P incorporation into glutamate-tyrosine co-polymer)
Type: biochemical
Conditions: read-out: FGFr-TK IC50
quantity name: IC50 (nM)

Sample records with IC50:
Given the entry `COC(=O)c1ccc(Cn2c(=O)c(-c3c(Cl)cccc3Cl)cc3cnc(N)nc32)cc1` , report its measured IC50. 20300

`CCOC(=O)c1ccc(Nc2ncc3cc(-c4c(Cl)cccc4Cl)c(=O)n(C)c3n2)cc1` ? 69000

Also, `CCCCNc1ncc2cc(-c3c(Cl)cccc3Cl)c(=O)n(C)c2n1` please. 4040

Also `CCn1c(=O)c(-c2ccc3ccccc3c2)cc2cnc(Nc3ccccc3)nc21` ? 20000

P. CCNc1ncc2cc(-c3c(Cl)cccc3Cl)c(=O)n(C)c2n1
Q. CCn1c(=N)c(-c2ccccc2)cc2cnc(Nc3ccccc3)nc21
R. Cn1c(=O)c(-c2c(Cl)cccc2Cl)cc2cnc(NCCCCCC(=O)O)nc21
# rank by IC50, ascending (min first) Arrange the labels as the request states and list them. Q, R, P
(Q: 97 nM, R: 453 nM, P: 800 nM)

P. CC(C)Cn1c(=O)c(-c2c(Cl)cccc2Cl)cc2cnc(N)nc21
Q. Nc1ncc2cc(-c3c(Cl)cccc3Cl)c(=O)n(Cc3ccccc3)c2n1
Between P and Q , whose recorded IC50 is greater? Your answer should be the label of the entry you select. Q
(Q: 1190 nM, P: 426 nM)
